details: human gut metagenome, 24 h, 2 µM; note: call rule not given here

- Molecule: "CNCCC(Oc1ccc(C(F)(F)F)cc1)c1ccccc1 (stereo not drawn)"
  Bacterial Biotransformation: "Compound metabolized"
- Molecule: "CC(C)(C)NC[C@H](O)COc1ccccc1C1CCCC1.CC(C)(C)NC[C@H](O)COc1ccccc1C1CCCC1.O=S(=O)(O)O [PENBUTOLOL SULFATE]"
  Bacterial Biotransformation: "Compound metabolized"

----------
experiment: The drug is tested on WLS-052 corresponding to human gut metagenome with ENA study accession number: PRJEB37062 and ENA sample accession number: ERS12561747 for biotransformation under anaerobic condition. The drug concentrations were measured over 9 timepoints collected between 0 and 24 hours of incubation by liquid-chromatography-coupled mass spectrometry (LC–MS); settings: 2 µM

- Compound: "CNC(=C[N+](=O)[O-])NCCSCc1csc(CN(C)C)n1"
  Bacterial Biotransformation: "Compound NOT metabolized"
- Compound: "CCN(CC)CCNC(C(=O)OCCC(C)C)c1ccccc1.Cl.Cl (centres undefined)"
  Bacterial Biotransformation: "Compound NOT metabolized"
- Compound: "CN1CCN(C2=Nc3cc(Cl)ccc3Nc3ccccc32)CC1"
  Bacterial Biotransformation: "Compound NOT metabolized"

----------
conditions: human gut metagenome, 24 h, 2 µM
Recorded metric: Bacterial Biotransformation

Study these solved cases before continuing.
- Compound: "Cc1nc(-c2ccc(OCC(C)C)c(C#N)c2)sc1C(=O)O"
  Observed result: "Compound metabolized"
- Compound: "CS(=O)(=O)O.OC(CCN1CCCCC1)(c1ccccc1)c1ccccc1 [PRIDINOL METHANESULFONATE]"
  Observed result: "Compound metabolized"
- Compound: "C#C[C@]1(O)CC[C@H]2[C@@H]3CCC4=CC(=O)CC[C@@H]4[C@H]3CC[C@@]21CC"
  Observed result: "Compound metabolized"
- Compound: "CNCCC(Oc1ccc(C(F)(F)F)cc1)c1ccccc1 (stereo not given)"
  Observed result: "Compound NOT metabolized"

Consider the record given below.
The recorded Bacterial Biotransformation for Cc1cc2c(cc1S(N)(=O)=O)S(=O)(=O)CCC2 is Compound NOT metabolized

----------
assay: The drug is tested on Z-027 corresponding to metagenome with ENA study accession number: PRJEB37062 and ENA sample accession number: ERS12561826 for biotransformation under anaerobic condition. The drug concentrations were measured over 9 timepoints collected between 0 and 24 hours of incubation by liquid-chromatography-coupled mass spectrometry (LC–MS); details: 2 µM
Recorded metric: Bacterial Biotransformation

- Compound: "COc1ccccc1OCC(O)COC(N)=O (stereo not given) [METHOCARBAMOL]"
  Recorded metric: "Bacterial Biotransformation"
  Observed result: "Compound NOT metabolized"
- Compound: "O=c1n(CCCN2CCN(c3cccc(Cl)c3)CC2)nc2ccccn12 [TRAZODONE]"
  Recorded metric: "Bacterial Biotransformation"
  Observed result: "Compound NOT metabolized"
- Compound: "Cc1nc(-c2ccc(OCC(C)C)c(C#N)c2)sc1C(=O)O [FEBUXOSTAT]"
  Recorded metric: "Bacterial Biotransformation"
  Observed result: "Compound metabolized"
- Compound: "NS(=O)(=O)c1cc2c(cc1Cl)N=C(CSCc1ccccc1)NS2(=O)=O [BENZTHIAZIDE]"
  Recorded metric: "Bacterial Biotransformation"
  Observed result: "Compound NOT metabolized"
- Compound: "COc1cc2nc(N(C)CCCNC(=O)C3CCCO3)nc(N)c2cc1OC (stereo not given) [ALFUZOSIN]"
  Recorded metric: "Bacterial Biotransformation"
  Observed result: "Compound NOT metabolized"

The recorded Bacterial Biotransformation for C[C@@H]1C[C@H]2[C@@H]3CCC4=CC(=O)C=C[C@]4(C)[C@@]3(F)[C@@H](O)C[C@]2(C)[C@@]1(O)C(=O)CO [DEXAMETHASONE] is Compound metabolized

The recorded Bacterial Biotransformation for C=CCN1CC[C@]23c4c5ccc(O)c4O[C@H]2C(=O)CC[C@@]3(O)[C@H]1C5 [NALOXONE] is Compound NOT metabolized

----------
assay: The drug is tested on WLS-039 corresponding to human gut metagenome with ENA study accession number: PRJEB37062 and ENA sample accession number: ERS12561746 for biotransformation under anaerobic condition. The drug concentrations were measured over 9 timepoints collected between 0 and 24 hours of incubation by liquid-chromatography-coupled mass spectrometry (LC–MS); details: 2 µM
Recorded metric: Bacterial Biotransformation

Study these solved cases before continuing.
- Compound: "C=CCN1CC[C@]23c4c5ccc(O)c4O[C@H]2C(=O)CC[C@@]3(O)[C@H]1C5"
  Observed result: "Compound NOT metabolized"
- Compound: "C#C[C@]1(O)CC[C@H]2[C@@H]3CCC4=Cc5oncc5C[C@]4(C)[C@H]3CC[C@@]21C"
  Observed result: "Compound metabolized"
- Compound: "COc1c(C)c2c(c(O)c1C/C=C(\\C)CCC(=O)OCCN1CCOCC1)C(=O)OC2 [MYCOPHENOLATE MOFETIL]"
  Observed result: "Compound metabolized"
- Compound: "Cc1nc2n(c(=O)c1CCN1CCC(c3noc4cc(F)ccc34)CC1)CCCC2"
  Observed result: "Compound metabolized"
- Compound: "CCCCC(=O)N(Cc1ccc(-c2ccccc2-c2nnn[nH]2)cc1)[C@H](C(=O)O)C(C)C"
  Observed result: "Compound metabolized"
- Compound: "CN(C)CCC=C1c2ccccc2C=Cc2ccccc21"
  Observed result: "Compound metabolized"
- Compound: "CN1C[C@H](C(=O)N[C@]2(C)O[C@@]3(O)[C@@H]4CCCN4C(=O)[C@H](Cc4ccccc4)N3C2=O)C=C2c3cccc4[nH]cc(c34)C[C@H]21.CN1C[C@H](C(=O)N[C@]2(C)O[C@@]3(O)[C@@H]4CCCN4C(=O)[C@H](Cc4ccccc4)N3C2=O)C=C2c3cccc4[nH]cc(c34)C[C@H]21.O=C(O)C(O)C(O)C(=O)O [ERGOTAMINE TARTRATE]"
  Observed result: "Compound metabolized"
- Compound: "CCCc1nc(C(C)(C)O)c(C(=O)OCc2oc(=O)oc2C)n1Cc1ccc(-c2ccccc2-c2nnn[nH]2)cc1"
  Observed result: "Compound metabolized"
- Compound: "CCCCCOC(=O)Nc1nc(=O)n([C@@H]2O[C@H](C)[C@@H](O)[C@H]2O)cc1F"
  Observed result: "Compound metabolized"
- Compound: "CN1C(=O)CCS(=O)(=O)C1c1ccc(Cl)cc1 (configuration not stated)"
  Observed result: "Compound NOT metabolized"

The recorded Bacterial Biotransformation for NS(=O)(=O)c1cc2c(cc1Cl)N=C(CSCc1ccccc1)NS2(=O)=O [BENZTHIAZIDE] is Compound NOT metabolized

The recorded Bacterial Biotransformation for CC(C)(Oc1ccc(CCNC(=O)c2ccc(Cl)cc2)cc1)C(=O)O [BEZAFIBRATE] is Compound metabolized

----------
assay: The drug is tested on WLS-069 corresponding to human gut metagenome with ENA study accession number: PRJEB37062 and ENA sample accession number: ERS12561748 for biotransformation under anaerobic condition. The drug concentrations were measured over 9 timepoints collected between 0 and 24 hours of incubation by liquid-chromatography-coupled mass spectrometry (LC–MS); conditions: 2 µM
Recorded metric: Bacterial Biotransformation

Study these solved cases before continuing.
- Compound: "CN(C(=O)CN(CCO)CC(=O)N(C)C(C)(C)Cc1ccccc1)C(C)(C)Cc1ccccc1 [OXETHAZAINE]"
  Bacterial Biotransformation: "Compound metabolized"
- Compound: "CN1C[C@H](C(=O)N[C@]2(C)O[C@@]3(O)[C@@H]4CCCN4C(=O)[C@H](Cc4ccccc4)N3C2=O)C=C2c3cccc4[nH]cc(c34)C[C@H]21.CN1C[C@H](C(=O)N[C@]2(C)O[C@@]3(O)[C@@H]4CCCN4C(=O)[C@H](Cc4ccccc4)N3C2=O)C=C2c3cccc4[nH]cc(c34)C[C@H]21.O=C(O)C(O)C(O)C(=O)O [ERGOTAMINE TARTRATE]"
  Bacterial Biotransformation: "Compound metabolized"
- Compound: "N#Cc1ccc(C(c2ccc(C#N)cc2)n2cncn2)cc1 [LETROZOLE]"
  Bacterial Biotransformation: "Compound NOT metabolized"
- Compound: "CCN1CCCC1CNC(=O)c1cc(S(N)(=O)=O)ccc1OC (stereo not given) [SULPIRIDE]"
  Bacterial Biotransformation: "Compound metabolized"
- Compound: "OC(CCN1CCCCC1)(c1ccccc1)C1CCCCC1 (stereo not given) [TRIHEXYPHENIDYL]"
  Bacterial Biotransformation: "Compound metabolized"

The recorded Bacterial Biotransformation for CCc1nc(N)nc(N)c1-c1ccc(Cl)cc1 [PYRIMETHAMINE] is Compound NOT metabolized

The recorded Bacterial Biotransformation for CN1CCC(=C2c3ccccc3CCc3cccnc32)CC1.O=C(O)/C=C\C(=O)O.O=C(O)/C=C\C(=O)O [AZATADINE MALEATE] is Compound NOT metabolized

The recorded Bacterial Biotransformation for CC(C)NCC(O)COc1ccc(COCCOC(C)C)cc1.CC(C)NCC(O)COc1ccc(COCCOC(C)C)cc1.O=C(O)/C=C/C(=O)O (stereo not given) [BISOPROLOL FUMARATE] is Compound NOT metabolized

The recorded Bacterial Biotransformation for CC(C)(C)NC[C@H](O)COc1ccccc1C1CCCC1.CC(C)(C)NC[C@H](O)COc1ccccc1C1CCCC1.O=S(=O)(O)O [PENBUTOLOL SULFATE] is Compound metabolized

The recorded Bacterial Biotransformation for O=c1[nH]c2ccccc2n1C1CCN(CCCC(c2ccc(F)cc2)c2ccc(F)cc2)CC1 [PIMOZIDE] is Compound metabolized

The recorded Bacterial Biotransformation for OC(Cn1cncn1)(Cn1cncn1)c1ccc(F)cc1F [FLUCONAZOLE] is Compound metabolized

The recorded Bacterial Biotransformation for CCCc1nc2c(C)cc(-c3nc4ccccc4n3C)cc2n1Cc1ccc(-c2ccccc2C(=O)O)cc1 is Compound metabolized

// provenance: ChEMBL document CHEMBL5724914
